# TARGET_OR_SYSTEM: human TLR9 (Homo sapiens (Human))
# Sequence (Q9NR96 26-1032): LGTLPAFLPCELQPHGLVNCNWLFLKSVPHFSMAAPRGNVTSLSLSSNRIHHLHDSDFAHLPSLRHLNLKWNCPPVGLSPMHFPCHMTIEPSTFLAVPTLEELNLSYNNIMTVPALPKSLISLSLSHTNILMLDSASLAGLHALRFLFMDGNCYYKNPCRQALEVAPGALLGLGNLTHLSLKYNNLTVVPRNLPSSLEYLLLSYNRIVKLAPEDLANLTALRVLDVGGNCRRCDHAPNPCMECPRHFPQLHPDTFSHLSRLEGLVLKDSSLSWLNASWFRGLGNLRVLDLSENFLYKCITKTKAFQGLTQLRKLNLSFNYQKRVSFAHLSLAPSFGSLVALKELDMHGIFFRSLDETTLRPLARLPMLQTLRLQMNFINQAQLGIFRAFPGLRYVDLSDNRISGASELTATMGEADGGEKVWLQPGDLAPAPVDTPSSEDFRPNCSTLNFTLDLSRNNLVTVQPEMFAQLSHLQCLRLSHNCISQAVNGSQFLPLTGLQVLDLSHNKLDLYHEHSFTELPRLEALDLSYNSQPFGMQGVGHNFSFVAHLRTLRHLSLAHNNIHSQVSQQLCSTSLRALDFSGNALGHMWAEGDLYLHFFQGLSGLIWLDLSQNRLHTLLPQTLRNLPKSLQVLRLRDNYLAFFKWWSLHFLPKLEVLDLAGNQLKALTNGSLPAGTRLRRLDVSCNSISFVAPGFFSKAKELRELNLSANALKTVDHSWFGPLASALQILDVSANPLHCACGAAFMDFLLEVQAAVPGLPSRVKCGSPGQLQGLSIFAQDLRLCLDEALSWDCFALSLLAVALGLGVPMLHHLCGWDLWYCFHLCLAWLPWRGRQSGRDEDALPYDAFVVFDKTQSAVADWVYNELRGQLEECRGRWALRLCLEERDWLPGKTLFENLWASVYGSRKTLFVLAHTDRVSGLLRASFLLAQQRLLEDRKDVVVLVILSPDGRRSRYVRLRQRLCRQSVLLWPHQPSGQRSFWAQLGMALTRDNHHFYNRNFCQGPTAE
# ASSAY_PROCEDURE: TLR9 inhibition reporter assay (HEK-Blue SEAP)
# RECORDED_CONDITIONS: read-out: TLR9 IC50; HEK-Blue cells overexpressing human TLR9, ODN2006 5 nM stimulation, SEAP reporter
ENDPOINT: pIC50
Scale explanation: pIC50 corresponds to minus log10 of a concentration expressed in moles per litre.

Please review the following examples before continuing.
{"SMILES_CODE": "COc1cc(-c2[nH]c3cnc(N4CCN(C)C[C@H]4C)c(F)c3c2C(C)C)cn2ncnc12", "NUMERIC_RESULT": 4.99}
{"SMILES_CODE": "COc1cc(-c2[nH]c3cnc(N4CCN(C5CCC5)CC4)c(F)c3c2C(C)C)cn2ncnc12", "NUMERIC_RESULT": 5.39}

Attention now turns to another entry.
Please report pIC50 for the following molecule: Cc1c(-c2[nH]c3cnc(N4CC5(C4)CN(C4CCOCC4)C5)c(F)c3c2C(C)C)cn2ncnc2c1C
5.19

---

Measured IC50, listed per entry.
# TARGET_OR_SYSTEM: human TLR9 (Homo sapiens (Human))
# ASSAY_PROCEDURE: TLR9 inhibition reporter assay (HEK-Blue SEAP);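 note: SEAP driven by IFN-β minimal promoter carrying five NF-κB and AP-1 sites, 22 h at 37 °C, compounds 0.05 nM–50 µM, inhibition scaled between agonist-plus-DMSO and reference-inhibitor wells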
# RECORDED_CONDITIONS: read-out: TLR9 IC50; HEK-Blue cells overexpressing human TLR9, ODN2006 5 nM stimulation, SEAP reporter
Enter your answer as a number in µM; do not include the unit.

Please review the following examples before continuing.
{"COMPOUND": "CCN1CC2(C1)CN(c1ncc3[nH]c(-c4cc(OC)c5ncnn5c4)c(C(C)C)c3c1F)C2", "IC50, µM": 3.63}
{"COMPOUND": "Cc1c(-c2[nH]c3cnc(C4CCC(NC5CCOCC5)CC4)c(C)c3c2C(C)C)cn2ncnc2c1C (centres unmarked) [Example 120]", "IC50, µM": 0.071}
{"COMPOUND": "Cc1c(-c2[nH]c3cnc(N4CCC(N(C)C(C)C)CC4)c(F)c3c2C(C)C)cn2ncnc2c1C", "IC50, µM": 1.86}
{"COMPOUND": "Cc1c(-c2[nH]c3cnc(C4CCC(NC(C)C)CC4)c(C)c3c2C(C)C)cn2ncnc2c1C (centres unmarked) [Example 277]", "IC50, µM": 0.265}
{"COMPOUND": "Cc1cc(-c2[nH]c3cnc(N4CCC(N(C)C5COC5)CC4)c(F)c3c2C(C)C)cn2ncnc12", "IC50, µM": 5.25}

Please report IC50 for the following compound: CNCC(=O)N1CCC(c2ncc3[nH]c(-c4cc(C)c5ncnn5c4)c(C(C)C)c3c2F)CC1
5.53

---

# TARGET_OR_SYSTEM: human TLR8 (Homo sapiens (Human), UniProt Q9NR97)
# Sequence (Q9NR97 27-1041): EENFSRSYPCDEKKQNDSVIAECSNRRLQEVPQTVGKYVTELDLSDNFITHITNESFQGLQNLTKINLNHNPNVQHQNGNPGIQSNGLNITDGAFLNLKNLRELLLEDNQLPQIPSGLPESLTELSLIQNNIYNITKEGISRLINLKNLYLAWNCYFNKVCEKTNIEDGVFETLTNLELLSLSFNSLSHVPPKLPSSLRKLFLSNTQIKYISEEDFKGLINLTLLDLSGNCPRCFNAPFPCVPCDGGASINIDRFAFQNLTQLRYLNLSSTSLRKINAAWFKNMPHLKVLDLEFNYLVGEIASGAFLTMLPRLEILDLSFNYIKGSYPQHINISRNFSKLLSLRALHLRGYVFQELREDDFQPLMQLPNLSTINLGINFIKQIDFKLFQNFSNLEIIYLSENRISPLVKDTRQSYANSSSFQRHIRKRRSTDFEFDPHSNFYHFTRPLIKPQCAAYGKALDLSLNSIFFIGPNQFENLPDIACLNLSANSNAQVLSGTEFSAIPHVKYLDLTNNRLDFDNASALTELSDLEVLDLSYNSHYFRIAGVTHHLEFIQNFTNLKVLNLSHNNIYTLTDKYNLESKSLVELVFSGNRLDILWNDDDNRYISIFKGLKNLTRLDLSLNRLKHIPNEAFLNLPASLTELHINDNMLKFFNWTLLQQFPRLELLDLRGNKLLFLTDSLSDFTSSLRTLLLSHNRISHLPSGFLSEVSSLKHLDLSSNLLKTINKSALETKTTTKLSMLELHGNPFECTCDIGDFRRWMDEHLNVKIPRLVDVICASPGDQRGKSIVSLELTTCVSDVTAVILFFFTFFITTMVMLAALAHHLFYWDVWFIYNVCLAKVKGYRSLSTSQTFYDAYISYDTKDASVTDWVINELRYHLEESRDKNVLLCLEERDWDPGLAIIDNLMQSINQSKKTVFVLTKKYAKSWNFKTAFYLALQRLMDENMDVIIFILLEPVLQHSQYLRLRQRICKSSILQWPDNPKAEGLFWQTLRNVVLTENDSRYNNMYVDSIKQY
# ASSAY_PROCEDURE: TLR8 inhibition reporter assay (HEK-Blue SEAP);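 note: SEAP driven by IFN-β minimal promoter with five NF-κB and AP-1 sites, compounds tested 0.05 nM to 50 µM, 22 h incubation, inhibition relative to agonist plus DMSO wells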
# RECORDED_CONDITIONS: read-out: TLR8 IC50; HEK-Blue cells overexpressing human TLR8; R848 15.9 μM stimulation; SEAP reporter
Binarize IC50 at 3 nM; below is Yes, at or above is No.

For orientation, consider the following solved cases.
{"COMPOUND": "Cc1cc(-c2[nH]c3cnc(C4CCC(NC5(C)COC5)CC4)c(F)c3c2C(C)C)cn2ncnc12 (stereo not shown)", "TARGET_OR_SYSTEM": "human TLR8 (Homo sapiens (Human), UniProt Q9NR97)", "CLASS": "No"}
{"COMPOUND": "Cc1c(-c2[nH]c3cnc(C4CCC(NC5CCOCC5)CC4)c(F)c3c2C(C)C)cn2ncnc2c1C (stereo not shown)", "TARGET_OR_SYSTEM": "human TLR8 (Homo sapiens (Human), UniProt Q9NR97)", "CLASS": "No"}
{"COMPOUND": "Cc1c(-c2[nH]c3cnc(N4CCN(CC#N)C[C@H]4C)c(F)c3c2C(C)C)cn2ncnc2c1C", "TARGET_OR_SYSTEM": "human TLR8 (Homo sapiens (Human), UniProt Q9NR97)", "CLASS": "Yes"}
{"COMPOUND": "Cc1c(-c2[nH]c3cnc(N4CCN(C)C[C@H]4C)c(F)c3c2C(C)C)cn2ncnc2c1C", "TARGET_OR_SYSTEM": "human TLR8 (Homo sapiens (Human), UniProt Q9NR97)", "CLASS": "Yes"}
{"COMPOUND": "CCN(C)C1CCC(c2ncc3[nH]c(-c4cc(OC)c5ncnn5c4)c(C(C)C)c3c2F)CC1 (stereo not shown)", "TARGET_OR_SYSTEM": "human TLR8 (Homo sapiens (Human), UniProt Q9NR97)", "CLASS": "Yes"}

Report whether reported IC50 is lower than 3 nM (strictly) for Cc1c(-c2[nH]c3cnc(N4CCN(C(C)C)C[C@H]4C)c(F)c3c2C(C)C)cn2ncnc2c1C
Yes

Report whether reported IC50 is lower than 3 nM (strictly) for COc1cc(-c2[nH]c3cnc(N4CCC(N(C)CC(N)=O)CC4)c(F)c3c2C(C)C)cn2ncnc12
Yes

Report whether reported IC50 is lower than 3 nM (strictly) for CCN(C)C1CCN(c2ncc3[nH]c(-c4cc(C)c5ncnn5c4)c(C(C)C)c3c2C)CC1
Yes

Report whether reported IC50 is lower than 3 nM (strictly) for Cc1c(-c2[nH]c3cnc(N4CCN(C(=O)CN5CCOCC5)C[C@H]4C)c(F)c3c2C(C)C)cn2ncnc2c1C
Yes

Report whether reported IC50 is lower than 3 nM (strictly) for Cc1c(-c2[nH]c3cnc(N4CCN(CC(C)C)C[C@H]4C)c(F)c3c2C(C)C)cn2ncnc2c1C
No

Report whether reported IC50 is lower than 3 nM (strictly) for COc1cc(-c2[nH]c3cnc(C4CCC(N5CC6(COC6)C5)CC4)c(F)c3c2C(C)C)cn2ncnc12 (stereo not shown)
Yes

Report whether reported IC50 is lower than 3 nM (strictly) for Cc1c(-c2[nH]c3cnc(N4CCN(CC(F)(F)F)C[C@H]4C)c(F)c3c2C(C)C)cn2ncnc2c1C
No

Report whether reported IC50 is lower than 3 nM (strictly) for Cc1c(-c2[nH]c3cnc(N4CCN(C5COC5)C[C@H]4C)c(F)c3c2C(C)C)cn2ncnc2c1C
Yes

Report whether reported IC50 is lower than 3 nM (strictly) for COc1cc(-c2[nH]c3cnc(C4CCN(C5CCOCC5)CC4)c(F)c3c2C(C)C)cn2ncnc12
No

Report whether reported IC50 is lower than 3 nM (strictly) for Cc1cc(-c2[nH]c3cnc(C4CCN(CC5(C)COC5)CC4)c(F)c3c2C(C)C)cc(C)n1
No

Report whether reported IC50 is lower than 3 nM (strictly) for Cc1c(-c2[nH]c3cnc(N4CCN(C5CCOCC5)C[C@H]4C)c(F)c3c2C(C)C)cn2ncnc2c1C
Yes

Report whether reported IC50 is lower than 3 nM (strictly) for Cc1c(N2CCC(NC(C)C)CC2)ncc2[nH]c(-c3cc(C)c4ncnn4c3)c(C(C)C)c12
Yes

Report whether reported IC50 is lower than 3 nM (strictly) for COCCN1CCC(c2ncc3[nH]c(-c4cc(C)nc(C)c4)c(C(C)C)c3c2F)CC1
No

Report whether reported IC50 is lower than 3 nM (strictly) for COc1cc(-c2[nH]c3cnc(C4CCC(NCC5(C)COC5)CC4)c(F)c3c2C(C)C)cn2ncnc12 (stereo not shown)
Yes

Report whether reported IC50 is lower than 3 nM (strictly) for COc1cc(-c2[nH]c3cnc(N4CCC(N(C)C)CC4)c(F)c3c2C(C)C)cn2ncnc12
Yes

Report whether reported IC50 is lower than 3 nM (strictly) for Cc1c(-c2[nH]c3cnc(C4CCC(NCC(C)(C)C)CC4)c(F)c3c2C(C)C)cn2ncnc2c1C (stereo not shown)
Yes

Report whether reported IC50 is lower than 3 nM (strictly) for Cc1cc(-c2[nH]c3cnc(C4CCC(NC(C)C)CC4)c(F)c3c2C(C)C)cn2ncnc12 (stereo not shown)
Yes

Report whether reported IC50 is lower than 3 nM (strictly) for Cc1cc(-c2[nH]c3cnc(N4CCC(NC5CCOCC5)CC4)c(F)c3c2C(C)C)cn2ncnc12
Yes

Report whether reported IC50 is lower than 3 nM (strictly) for Cc1c(-c2[nH]c3cnc(N4CCN(CC(N)=O)C[C@H]4C)c(F)c3c2C(C)C)cn2ncnc2c1C
Yes

Report whether reported IC50 is lower than 3 nM (strictly) for COc1cc(-c2[nH]c3cnc(N4CCN(CC(C)C)C[C@H]4C)c(F)c3c2C(C)C)cn2ncnc12
No

---

# TARGET_OR_SYSTEM: UniProt:Q9NR97
# ASSAY_PROCEDURE: TLR8 inhibition reporter assay (HEK-Blue SEAP)
# RECORDED_CONDITIONS: read-out: TLR8 IC50; HEK-Blue cells overexpressing human TLR8, R848 15.9 μM stimulation, SEAP reporter
Just so you know, the groups by IC50 go like this: low bin: < 3 nM; mid bin: ≥ 3 nM and < 8 nM; high bin: ≥ 8 nM

{"COMPOUND": "Cc1c(-c2[nH]c3cnc(N4CC5(C4)CN(C4CCOCC4)C5)c(F)c3c2C(C)C)cn2ncnc2c1C", "CLASS": "mid bin"}
{"COMPOUND": "COc1cc(-c2[nH]c3cnc(N4CC5(C4)CN(C(C)C)C5)c(F)c3c2C(C)C)cn2ncnc12", "CLASS": "mid bin"}
{"COMPOUND": "COc1cc(-c2[nH]c3cnc(C4CCC(NC[C@@H](F)C(C)(C)O)CC4)c(C)c3c2C(C)C)cn2ncnc12 (stereo partly drawn) [Example 117]", "CLASS": "high bin"}
{"COMPOUND": "Cc1c(-c2[nH]c3cnc(N4CCN(C5COC5)CC4)c(F)c3c2C(C)C)cn2ncnc2c1C", "CLASS": "mid bin"}
{"COMPOUND": "CNC(=O)CN1CCC(c2cc3c(C(C)C)c(-c4cc(OC)c5ncnn5c4)[nH]c3cn2)CC1", "CLASS": "high bin"}

Sort COc1cc(-c2[nH]c3cnc(N4CCN(C5CCC5)CC4)c(F)c3c2C(C)C)cn2ncnc12 into one of the categories.
low bin

Sort Cc1c(-c2[nH]c3cnc(C4CCC(NCC(C)(C)C)CC4)c(F)c3c2C(C)C)cn2ncnc2c1C (stereo not drawn) [Example 200] into one of the categories.
low bin

Sort COc1cc(-c2[nH]c3cnc(N4CCN(CCS(C)(=O)=O)CC4)c(Cl)c3c2C(C)C)cn2ncnc12 into one of the categories.
mid bin

Sort Cc1cc(-c2[nH]c3cnc(C4CCN(C5COC5)CC4)c(F)c3c2C(C)C)cn2ncnc12 into one of the categories.
high bin
